In this section we review reported IC50 values for a set of compounds.
target: ROCK2 (Homo sapiens, UniProt O75116); experiment: ROCK2 kinase inhibition assay (LABCHIP 3000 Reader, FITC peptide substrate);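 further: rho kinase reaction read by separating phosphorylated from unphosphorylated peptide on chip, with inhibition of kinase activity computed per concentration across a dose-response series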
Sequence (O75116 whole entry, species assumed): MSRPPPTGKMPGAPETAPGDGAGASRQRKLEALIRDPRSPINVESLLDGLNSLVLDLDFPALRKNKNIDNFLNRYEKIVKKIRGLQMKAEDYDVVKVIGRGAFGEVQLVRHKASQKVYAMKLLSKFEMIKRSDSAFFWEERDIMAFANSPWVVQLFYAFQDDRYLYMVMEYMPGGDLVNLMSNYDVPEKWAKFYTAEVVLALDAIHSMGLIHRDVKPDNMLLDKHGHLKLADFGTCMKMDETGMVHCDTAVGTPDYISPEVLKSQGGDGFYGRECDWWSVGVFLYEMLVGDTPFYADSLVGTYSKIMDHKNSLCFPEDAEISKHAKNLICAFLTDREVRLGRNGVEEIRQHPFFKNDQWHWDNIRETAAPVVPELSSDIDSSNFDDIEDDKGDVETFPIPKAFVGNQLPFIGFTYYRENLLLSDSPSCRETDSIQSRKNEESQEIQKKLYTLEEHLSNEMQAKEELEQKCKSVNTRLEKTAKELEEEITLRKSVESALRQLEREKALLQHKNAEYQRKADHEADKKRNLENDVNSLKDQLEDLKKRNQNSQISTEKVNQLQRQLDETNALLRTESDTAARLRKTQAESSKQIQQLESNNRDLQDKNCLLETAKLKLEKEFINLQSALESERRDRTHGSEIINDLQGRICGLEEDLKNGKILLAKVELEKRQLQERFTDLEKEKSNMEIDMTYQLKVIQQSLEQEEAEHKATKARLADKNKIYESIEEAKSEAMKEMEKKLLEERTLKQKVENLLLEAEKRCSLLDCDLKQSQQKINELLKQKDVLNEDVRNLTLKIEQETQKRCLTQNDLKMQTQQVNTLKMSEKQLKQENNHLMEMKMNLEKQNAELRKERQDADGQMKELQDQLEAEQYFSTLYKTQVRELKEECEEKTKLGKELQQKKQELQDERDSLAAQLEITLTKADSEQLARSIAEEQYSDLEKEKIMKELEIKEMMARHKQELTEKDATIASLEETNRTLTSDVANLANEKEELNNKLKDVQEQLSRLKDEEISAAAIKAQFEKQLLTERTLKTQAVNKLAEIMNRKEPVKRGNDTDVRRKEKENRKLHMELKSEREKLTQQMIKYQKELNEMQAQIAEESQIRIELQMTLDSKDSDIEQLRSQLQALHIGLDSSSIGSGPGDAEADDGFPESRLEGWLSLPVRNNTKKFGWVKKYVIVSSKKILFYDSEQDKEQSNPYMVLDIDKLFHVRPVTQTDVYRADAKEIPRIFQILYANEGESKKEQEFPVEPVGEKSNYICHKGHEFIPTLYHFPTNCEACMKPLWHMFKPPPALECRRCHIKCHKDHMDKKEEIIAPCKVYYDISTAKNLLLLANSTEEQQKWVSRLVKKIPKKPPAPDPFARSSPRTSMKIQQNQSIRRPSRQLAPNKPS
Where a name gives a salt, the structure may show the parent alone.

Some compounds with recorded IC50:
{"compound": "NC(=O)c1cccnc1O[C@H]1CC2(C[C@H](NC(=O)c3ncoc3-c3ccccc3)C2)C1 (some centres unmarked)", "experimental-value": "50 to 250 nM"}
{"compound": "NC(=O)c1cccnc1O[C@H]1CC2(C[C@H](NC(=O)c3cc(C(F)(F)F)cc4[nH]c(=O)[nH]c34)C2)C1 (some centres unmarked)", "experimental-value": "< 5 nM"}
{"compound": "Cn1ccc(-c2cc(C#N)cc(C(=O)N[C@H]3CC4(C3)C[C@H](Oc3ncccc3C(N)=O)C4)c2)cc1=O (some centres unmarked)", "experimental-value": "5 to 50 nM"}
{"compound": "NC(=O)c1cccnc1O[C@H]1CC2(C[C@H](NC(=O)c3cnc4cc(OC(CF)CF)ccn34)C2)C1 (some centres unmarked)", "experimental-value": "5 to 50 nM"}
{"compound": "NC(=O)c1ccccc1O[C@H]1CC2(C[C@H](NC(=O)c3cnc4cc(N5CCOCC5)ccn34)C2)C1 (some centres unmarked)", "experimental-value": "5 to 50 nM"}

Prompt: I am curious: what IC50 value has been reported for Cc1nc(-c2ccccc2)oc1C(=O)N[C@H]1CC2(C1)C[C@H](Oc1ncccc1C(N)=O)C2 (some centres unmarked) ?
Completion: 250 to 2500 nM

Prompt: Entry to check: CC(C)(O)COc1ccc2c(C(=O)NC3CC4(C3)CC(Oc3cc(-c5cccnc5)ccc3C(N)=O)C4)cnn2c1 (centres unmarked)
Completion: 5 to 50 nM

Prompt: Entry to check: COc1ccccc1-n1cc(C(=O)NC2CC3(C2)CC(Oc2ncccc2C(N)=O)C3)cn1 (centres unmarked)
Completion: 5 to 50 nM

Prompt: Entry to check: CC(C)(O)COc1ccc2c(C(=O)NC3CC4(C3)CC(Oc3ncncc3C(N)=O)C4)cnn2c1 (centres unmarked)
Completion: 50 to 250 nM

Prompt: Entry to check: Cc1c(OCC(C)(C)O)ccc2c(C(=O)N[C@H]3CC4(C3)C[C@H](Oc3ncccc3C(N)=O)C4)cnn12 (some centres unmarked)
Completion: 5 to 50 nM

Prompt: Entry to check: COc1cccc(-c2ccc3c(C(=O)N[C@H]4CC5(C4)C[C@H](Oc4ncccc4C(N)=O)C5)nn(C(F)F)c3c2)c1 (some centres unmarked)
Completion: 5 to 50 nM

Prompt: Entry to check: N#Cc1cc(C(=O)N[C@H]2CC3(C2)C[C@H](Oc2ncccc2C(N)=O)C3)cc(C2CC2)c1 (some centres unmarked)
Completion: 5 to 50 nM

Prompt: Entry to check: [H][C@]1(Oc2ncccc2C(N)=O)C[C@]2(C[C@@H](NC(=O)c3cn4cc(OC)ccc4n3)C2)C1 (some centres unmarked) [Example 464, TFA Salt]
Completion: 250 to 2500 nM

Prompt: Entry to check: Cn1cc(-c2ccc(C(N)=O)c(OC3CC4(CC(NC(=O)c5cnn6cc(OCC(C)(C)O)ccc56)C4)C3)c2)cn1 (centres unmarked)
Completion: 5 to 50 nM

Data origin: patent US10829501B2
